The measurements presented in this section are drawn from the antibiotic and cytotoxicity screens of Wong et al. (2023).

Tested on: HepG2
assay_comment: cytotoxicity call (relative viability < 0.9)
assay_conditions: 10 µM
Screen size: about 39,000 compounds; about 3,300 (8.5%) were called active. This excerpt belongs to a sample that is enriched for actives.
Respond only with the outcome that fits, drawn from true (1) = active, false (0) = inactive

Problem: Recorded test outcome, item "CC(C)C[C@@H]1NC(=O)[C@H]2C[C@@H](C(=O)NCCCC[N+](C)(C)C)[C@@H](c3cccc(OCCO)c3)N2C1=O"
Solution: false (0)

Problem: Recorded test outcome, item "CC(C)NC(=O)N(C)C[C@H]1Oc2c(NS(=O)(=O)c3ccc(F)cc3)cccc2C(=O)N([C@H](C)CO)C[C@H]1C"
Solution: false (0)

Problem: Recorded test outcome, item "C[C@H](CO)N1C[C@H](C)[C@@H](CN(C)Cc2ccc(Oc3ccccc3)cc2)Oc2ccc(NC(=O)CCC(F)(F)F)cc2CC1=O"
Solution: true (1)

Problem: Recorded test outcome, item "C[C@@H]1CN([C@@H](C)CO)C(=O)c2cccc(NC(=O)CCCCCC(=O)Nc3ccccc3N)c2O[C@H]1CN(C)Cc1ccc(C(F)(F)F)cc1"
Solution: false (0)

Problem: Recorded test outcome, item "C[C@@H]1CN([C@@H](C)CO)C(=O)c2cc(NC(=O)C3CC3)ccc2O[C@H]1CN(C)S(=O)(=O)c1ccc(Cl)cc1"
Solution: false (0)

Problem: Recorded test outcome, item "C[C@@H]1CN([C@@H](C)CO)C(=O)Cc2cc(NC(=O)CCC(F)(F)F)ccc2O[C@H]1CN(C)Cc1ccc(Oc2ccccc2)cc1"
Solution: true (1)

Problem: Recorded test outcome, item CON=C(C(=O)NC1C(=O)N2C(C(=O)O)=C(C[N+]3(C)CCCC3)CSC12)c1csc(N)n1.[Cl-] (configuration not stated)
Solution: false (0)

* * *

Tested on: HepG2
assay_comment: cytotoxicity call (relative viability < 0.9)
assay_conditions: 10 µM
Among all 39,000 compounds or so, about 3,300 (8.5%) were called active. The sample holds actives, similar compounds and a random draw of the others, so the mix is not that of the screen.
measurement_label: cytotoxicity call

Consider the following illustrative entries.
smiles_data | measurement_label | val
C[C@@H]1CN([C@H](C)CO)C(=O)c2cccc(NS(=O)(=O)c3cccs3)c2O[C@H]1CN(C)C(=O)Nc1cccc2ccccc12 | cytotoxicity call | inactive
Cc1noc(C)c1NC(=O)N(C)C[C@H]1Oc2ccc(NC(=O)Cn3cnnn3)cc2C(=O)N([C@@H](C)CO)C[C@@H]1C | cytotoxicity call | inactive
C[C@@H]1CN([C@H](C)CO)C(=O)c2cc(NS(=O)(=O)c3ccc(Cl)cc3)ccc2O[C@@H](C)CCCCO[C@H]1CN(C)C(=O)Nc1ccc(C(F)(F)F)cc1 | cytotoxicity call | active
C[C@H](CO)N1C[C@H](C)[C@@H](CN(C)Cc2ccc(C(=O)Nc3ccccc3N)cc2)Oc2ccc(NC(=O)Cc3cn(C)c4ccccc34)cc2CC1=O | cytotoxicity call | inactive
Cc1ccc(S(=O)(=O)Nc2ccc3c(c2)C(=O)N([C@H](C)CO)C[C@H](C)[C@@H](CN(C)C(=O)c2ccccc2)OCCCC[C@H](C)O3)cc1 | cytotoxicity call | inactive
C[C@@H]1CCCCO[C@H](CN(C)C(=O)Nc2ccc(C(F)(F)F)cc2)[C@@H](C)CN([C@@H](C)CO)C(=O)c2cc(NS(=O)(=O)c3ccc(Cl)cc3)ccc2O1 | cytotoxicity call | inactive
Cc1noc(C)c1NC(=O)Nc1ccc2c(c1)C(=O)N([C@H](C)CO)C[C@H](C)[C@@H](CN(C)C(=O)Nc1cccc3ccccc13)OCCCC[C@H](C)O2 | cytotoxicity call | inactive
C[C@H](CO)N1C[C@H](C)[C@@H](CN(C)C(=O)Nc2ccc3c(c2)OCO3)Oc2ccc(NC(=O)Cn3cnnn3)cc2C1=O | cytotoxicity call | inactive
C[C@H]1CN([C@@H](C)CO)C(=O)c2cccc(NS(=O)(=O)c3cccs3)c2O[C@@H]1CN(C)C(=O)Nc1cccc2ccccc12 | cytotoxicity call | active
COc1ccc(S(=O)(=O)Nc2cccc3c2O[C@H](CN(C)C(=O)Nc2cccc4ccccc24)[C@H](C)CN([C@H](C)CO)C3=O)cc1 | cytotoxicity call | inactive

Problem: Output cytotoxicity call of "COc1ccc(S(=O)(=O)Nc2cccc3c2O[C@H](CN(C)C(=O)Nc2c(C)noc2C)[C@@H](C)CN([C@@H](C)CO)C3=O)cc1"
Solution: inactive

Problem: Output cytotoxicity call of "C[C@@H]1CN([C@@H](C)CO)C(=O)c2cc(C#Cc3ccc(F)cc3)cnc2O[C@@H]1CN(C)CC1CCOCC1"
Solution: inactive

Problem: Output cytotoxicity call of "COc1ccc(S(=O)(=O)Nc2cccc3c2O[C@H](CN(C)C(=O)Nc2c(C)noc2C)[C@@H](C)CN([C@H](C)CO)C3=O)cc1"
Solution: active

* * *

Test system: HepG2
assay_comment: cytotoxicity call (relative viability < 0.9)
assay_conditions: 10 µM
Out of some 39,000 compounds screened, about 3,300 (8.5%) were called active. The sample holds actives, similar compounds and a random draw of the others, so the mix is not that of the screen.
measurement_label: cytotoxicity call

Consider the following illustrative entries.
smiles_data | cytotoxicity call
O=C(C[C@@H]1CC[C@@H]2[C@H](COC[C@@H](O)CN2C(=O)c2ccc(F)cc2)O1)NCCCN1CCOCC1 | inactive
COc1ccc(NC(=O)Nc2ccc3c(c2)CC(=O)N([C@@H](C)CO)C[C@@H](C)[C@H](CN(C)Cc2ccc(Oc4ccccc4)cc2)O3)cc1 | active
COc1ccc(NC(=O)Nc2ccc3c(c2)CC(=O)N([C@H](C)CO)C[C@@H](C)[C@@H](CN(C)Cc2ccc(Oc4ccccc4)cc2)O3)cc1 | active
COc1cccc(S(=O)(=O)Nc2ccc3c(c2)[C@H]2C[C@@H](CC(=O)NC4CCCCC4)O[C@@H](CO)[C@H]2O3)c1 | inactive
C[C@@H]1CN([C@@H](C)CO)C(=O)c2cc(NS(=O)(=O)c3ccc(Cl)cc3)ccc2O[C@H]1CN(C)Cc1ccc(Cl)c(Cl)c1 | active
C[C@@H]1CCCCO[C@H](CN(C)Cc2ccc(C(F)(F)F)cc2)[C@H](C)CN([C@H](C)CO)C(=O)c2cc(NC(=O)c3ccncc3)ccc2O1 | inactive

Turning now to a further compound:
Problem: Output cytotoxicity call of "CCS(=O)(=O)N1CCC(C(=O)N(C)C)CC1"
Solution: inactive

* * *

Test system: HepG2
assay_comment: cytotoxicity call (relative viability < 0.9)
assay_conditions: 10 µM
Out of some 39,000 compounds screened, about 3,300 (8.5%) were called active. This excerpt belongs to a sample that is enriched for actives.
Respond only with the outcome that fits, drawn from TRUE = active, FALSE = inactive

Problem: Recorded test outcome, item "CO[C@H]1O[C@H](CO)[C@@H](OC(=O)Nc2ccccc2-c2ccccc2)[C@H](OC(=O)Nc2ccc3c(c2)OCO3)[C@H]1OC(=O)Nc1ccc2c(c1)OCO2"
Solution: FALSE

Problem: Recorded test outcome, item "C[C@@H]1CCCCO[C@@H](CN(C)C(=O)Nc2cccc3ccccc23)[C@H](C)CN([C@H](C)CO)C(=O)c2cc(NS(C)(=O)=O)ccc2O1"
Solution: FALSE

Problem: Recorded test outcome, item "COc1ccc(S(=O)(=O)Nc2ccc3c(c2)C(=O)N([C@@H](C)CO)C[C@H](C)[C@H](CN(C)Cc2ccc(C(=O)O)cc2)OCCCC[C@@H](C)O3)cc1"
Solution: FALSE

Problem: Recorded test outcome, item "NS(=O)(=O)c1cccc2c1c([N+](=O)[O-])cc1[nH]c(=O)c(=O)[nH]c12"
Solution: FALSE

Problem: Recorded test outcome, item "COCC#Cc1cnc2c(c1)C(=O)N([C@@H](C)CO)C[C@@H](C)[C@H](CN(C)C(=O)Nc1ccc(OC)cc1)O2"
Solution: FALSE

Problem: Recorded test outcome, item "C[C@@H]1CCCCO[C@H](CN(C)C(=O)Nc2cccc3ccccc23)[C@@H](C)CN([C@@H](C)CO)C(=O)c2cc(NS(C)(=O)=O)ccc2O1"
Solution: FALSE

Problem: Recorded test outcome, item "COc1ccc(CNC(=O)C[C@H]2C[C@@H]3c4cc(NS(=O)(=O)c5ccc(F)cc5)ccc4O[C@@H]3[C@@H](CO)O2)cc1"
Solution: FALSE

Problem: Recorded test outcome, item "C[C@@H]1CCCCO[C@@H](CN(C)S(=O)(=O)c2cn(C)cn2)[C@@H](C)CN([C@H](C)CO)C(=O)c2cc(NS(C)(=O)=O)ccc2O1"
Solution: FALSE

Problem: Recorded test outcome, item "Cn1cnc(S(=O)(=O)N[C@@H]2CC[C@@H](CC(=O)Nc3ccccc3)O[C@H]2CO)c1"
Solution: FALSE

Problem: Recorded test outcome, item "COc1ccc(S(=O)(=O)Nc2ccc3c(c2)C(=O)N([C@H](C)CO)C[C@H](C)[C@H](CN(C)Cc2ccc(C(=O)O)cc2)OCCCC[C@@H](C)O3)cc1"
Solution: FALSE

Problem: Recorded test outcome, item "C[C@H]1CCCCO[C@@H](CN(C)C(=O)Nc2cccc3ccccc23)[C@@H](C)CN([C@@H](C)CO)C(=O)c2cc(NS(=O)(=O)c3ccccc3)ccc2O1"
Solution: FALSE

Problem: Recorded test outcome, item "CC(C)NC(=O)N(C)C[C@@H]1OCc2cn(nn2)CCCC(=O)N([C@@H](C)CO)C[C@H]1C"
Solution: FALSE

Problem: Recorded test outcome, item "COc1ccc(C#Cc2ccc3c(c2)[C@]2(C(=O)N3)[C@H](c3ccccc3OCCO)N3[C@H](c4ccccc4)[C@H](c4ccccc4)OC(=O)[C@H]3[C@@H]2C(=O)N2CCc3cc(OC)c(OC)cc3C2)cc1"
Solution: FALSE

Problem: Recorded test outcome, item "O=C(O)CCN1C(=O)NC2(CCCC2)C1=O"
Solution: FALSE

Problem: Recorded test outcome, item "C[C@H](CO)N1C[C@H](C)[C@@H](CN(C)Cc2ccc(Cl)c(Cl)c2)Oc2c(NC(=O)NC3CCCCC3)cccc2C1=O"
Solution: FALSE

Problem: Recorded test outcome, item "C[C@H](CO)N1C[C@H](C)[C@@H](CN(C)C(=O)Nc2cccc3ccccc23)OCCCC[C@H](C)Oc2ccc(NS(=O)(=O)c3ccccc3)cc2C1=O"
Solution: FALSE

Problem: Recorded test outcome, item "C[n+]1ccn(C[C@@]2(C)[C@H](C(=O)O)N3C(=O)C[C@H]3S2(=O)=O)n1"
Solution: FALSE

Problem: Recorded test outcome, item "CO[C@H]1CN(C)C(=O)c2cc(NS(=O)(=O)c3ccccc3)ccc2OC[C@H](C)N(C(=O)NC(C)C)C[C@@H]1C"
Solution: FALSE

Problem: Recorded test outcome, item "C[C@@H]1CCCCO[C@H](CN(C)C(=O)Nc2cccc3ccccc23)[C@H](C)CN([C@H](C)CO)C(=O)c2cc(NS(=O)(=O)c3ccccc3)ccc2O1"
Solution: TRUE

Problem: Recorded test outcome, item "Cc1noc(C)c1NC(=O)N(C)C[C@@H]1Oc2ncc(C#CCN(C)C)cc2C(=O)N([C@H](C)CO)C[C@H]1C"
Solution: FALSE

Problem: Recorded test outcome, item "NC1=NCCN1CC(=O)O"
Solution: TRUE

Problem: Recorded test outcome, item "C[C@@H]1CCCCO[C@H](CN(C)C(=O)Nc2cccc3ccccc23)[C@H](C)CN([C@H](C)CO)C(=O)c2cc(NS(C)(=O)=O)ccc2O1"
Solution: TRUE

Problem: Recorded test outcome, item "C[C@H](CO)N1C[C@H](C)[C@H](CN(C)Cc2ccncc2)Oc2c(NC(=O)c3cnccn3)cccc2C1=O"
Solution: FALSE

Problem: Recorded test outcome, item "COc1ccc(S(=O)(=O)N(C)C[C@@H]2Oc3ccc(NS(=O)(=O)c4c(C)noc4C)cc3C(=O)N([C@@H](C)CO)C[C@@H]2C)cc1"
Solution: FALSE

Problem: Recorded test outcome, item "O=C(C[C@H]1C[C@H]2c3cc(NS(=O)(=O)c4ccc(F)cc4)ccc3O[C@H]2[C@H](CO)O1)NCc1cccc(F)c1"
Solution: FALSE

Problem: Recorded test outcome, item "CC(C)NC(=O)N(C)C[C@H]1OCc2cnnn2CCCC(=O)N([C@H](C)CO)C[C@H]1C"
Solution: FALSE

Problem: Recorded test outcome, item "C[C@@H]1CN([C@H](C)CO)C(=O)c2cc(NC(=O)Nc3ccccc3)ccc2O[C@@H](C)CCCCO[C@H]1CN(C)C(=O)Cc1ccccc1"
Solution: FALSE

Problem: Recorded test outcome, item "C[C@@H]1CCCCO[C@H](CN(C)C(=O)Nc2cccc3ccccc23)[C@@H](C)CN([C@H](C)CO)C(=O)c2cc(NS(=O)(=O)c3ccccc3)ccc2O1"
Solution: FALSE
